# credit: paper PMC3565289

measured.on: FimH (Escherichia coli, UniProt P08191)
Construct: made in house
Sequence (P08191 22-179): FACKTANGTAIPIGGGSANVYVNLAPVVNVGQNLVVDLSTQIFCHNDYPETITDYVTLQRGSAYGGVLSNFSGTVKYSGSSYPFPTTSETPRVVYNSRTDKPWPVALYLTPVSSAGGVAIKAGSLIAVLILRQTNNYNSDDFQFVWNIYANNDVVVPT
procedure.details: VirtualDesignLab mQSAR (Quasar) affinity prediction
setup.conditions: Quasar mQSAR model
readout: Residual (predicted minus experimental pIC50)

# compound, measured.on, observed.measurement
measured = [
    ("COC(=O)c1ccc(-c2ccc(O[C@H]3O[C@H](CO)[C@@H](O)[C@H](O)[C@@H]3O)c(OC)c2)cc1 [compound 5]", "FimH (Escherichia coli, UniProt P08191)", "−0.8"),
    ("O=[N+]([O-])c1ccc2c(ccn2-c2ccc(O[C@H]3O[C@H](CO)[C@@H](O)[C@H](O)[C@@H]3O)c(Cl)c2)c1 [compound 11]", "FimH (Escherichia coli, UniProt P08191)", "−0.5"),
    ("O=[N+]([O-])c1ccc2c(c1)CCN2c1ccc(O[C@H]2O[C@H](CO)[C@@H](O)[C@H](O)[C@@H]2O)cc1 [compound 8]", "FimH (Escherichia coli, UniProt P08191)", "−0.8"),
]
